System Name: T1, human TL1A (Fitzgerald, Prod. #30R-AT070) (human, UniProt O95150 72-251, limits assumed, biotinylated with EZ-Link Sulfo-NHS-LC-Biotin where used as soluble antigen)
T1 construct: also called TNFSF15; biotinylated human TL1A
T1 sequence (looked up): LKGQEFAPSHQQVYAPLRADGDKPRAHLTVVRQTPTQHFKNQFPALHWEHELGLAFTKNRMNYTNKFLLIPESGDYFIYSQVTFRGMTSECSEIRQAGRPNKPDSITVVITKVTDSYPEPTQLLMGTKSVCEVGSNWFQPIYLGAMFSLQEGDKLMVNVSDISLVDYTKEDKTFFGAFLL
Measurement Notes: capture lift screen and Fab ELISA on coated TL1A
Measured Parameter: binding result

Some solved cases for reference:
INSERT INTO measurements (binder, measured_parameter, result) VALUES
  ('clone 26 Fab (12835 framework variant) (Fab, V domains shown, Fab) VH: QVQLVQSGAEVKKPGASVKVSCKASGFDIQDTYMHWVRQAPGQGLEWMGRIDPASGHTKYDPKFQVRVTMTTDTSTSTVYMELSSLRSEDTAVYYCSRSGGLPDVWGQGTTVTVSS VL: EIVLTQSPGTLSLSPGERATLSCRASSSVSYMYWYQQKPGQAPRPWIYATSNLASGVPDRFSGSGSGTDYTLTISRLEPEDFAVYYCQQWSGNPRTFGGGTKLEIK', 'binding result', 'binds'),
  ('clone 7-4 Fab (12835 framework variant) (Fab, V domains shown, Fab) VH: QVQLVQSGAEVKKPGASVKLSCKASGFDIQDTYMHWVRQAPGQGLEWMGRIDPASGHTKYDPKFQVRVTMTTDTSTSTVYMELSSLRSEDTAVYYCSRSGGLPDVWGQGTTVTVSS VL: EIVLTQSPGTLSLSPGERATLSCRASSSVSYMYWYQQKPGQAPRLWIYATSNLASGVPDRFSGSGSGTDYTLTISRLEPEDFAVYYCQQWSGNPRTFGGGTKLEIK', 'binding result', 'binds'),
  ('clone 19 Fab (12835 framework variant) (Fab, V domains shown, Fab) VH: QVQLVQSGAEVKKPGASVKLSCKASGFDIQDTYMHWVRQAPGQGLEWMGRIDPASGHTKYDPKFQVRVTMTTDTSTSTVYMELSSLRSEDTAVYYCSRSGGLPDVWGQGTTVTVSS VL: EIVLTQSPGTLSLSPGERATLSCRASSSVSYMYWYQQKPGQAPRLLIYATSNLASGIPDRFSGSGSGTDYTLTISRLEPEDFAVYYCQQWSGNPRTFGGGTKLEIK', 'binding result', 'binds'),
  ('clone 19-5 Fab (12835 framework variant) (Fab, V domains shown, Fab) VH: QVQLVQSGAEVKKPGASVKVSCKASGFDIQDTYMHWVRQAPGQGLEWMGRIDPASGHTKYDPKFQVRVTMTRDTSTSTVYMELSSLRSEDTAVYYCSRSGGLPDVWGQGTTVTVSS VL: EIVLTQSPGTLSLSPGERATLSCRASSSVSYMYWYQQKPGQAPRLLIYATSNLASGVPDRFSGSGSGTDYTLTISRLEPEDFAVYYCQQWSGNPRTFGGGTKLEIK', 'binding result', 'binds');

Then this binder:
Value of measured binding result for the entry clone 13-2 Fab (12835 framework variant) (Fab, V domains shown, Fab) VH: QVQLVQSGAEVKKPGASVKLSCKASGFDIQDTYMHWVRQAPGQGLEWMGRIDPASGHTKYDPKFQVRVTMTRDTSTSTVYMELSSLRSEDTAVYYCARSGGLPDVWGQGTTVTVSS VL: EIVLTQSPGTLSLSPGERATLSCRASSSVSYMYWYQQKPGQAPRPWIYATSNLASGVPDRFSGSGSGTDYTLTISRLEPEDFAVYYCQQWSGNPRTFGGGTKLEIK : binds

Each recorded value in this set is attributed to patent US20240368263A1.
